Data credit: the supplement of paper PMC10065799

Each entry below lists one item and its recorded phosphorylation enrichment value.
- System: c-Src;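 further: frequency after pTyr selection over input frequency; kinase dosed for 20-30% of maximal phosphorylation in three min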
- ASSAY_PROTOCOL: phosphorylation enrichment, bacterial display (enrichment ratio); higher = better substrate or ligand; peptides without Tyr show the background
The answer should be written as a number, with no unit following it.

Please review the following examples before continuing.
SEQUENCE_INPUT: SLIDMYSEVPD [OPA1_Y268_L272P]
VALUE_REPORTED: 0.747

SEQUENCE_INPUT: PSRKDYETYQP [CTNND2_Y1154]
VALUE_REPORTED: 0.62

SEQUENCE_INPUT: SHISGYAALRR [RAPH1_Y1226_T1228A]
VALUE_REPORTED: 0.44

SEQUENCE_INPUT: AKFPFYEKNKK [FOXL2_Y91]
VALUE_REPORTED: 0.415

SEQUENCE_INPUT: PNRILYRDFRQ [MYH7_Y715_G716R]
VALUE_REPORTED: 0.485

API: value(readout= phosphorylation enrichment, system= c-Src, query= ANVIHYFPTQA [SLC25A4_Y81_R80H] );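 further: frequency after pTyr selection over input frequency; kinase dosed for 20-30% of maximal phosphorylation in three min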
0.515

API: value(readout= phosphorylation enrichment, system= c-Src, query= RMETEYGPSVT [MXRA5_Y2717] );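 further: 11-residue human phosphosite peptides and single-mutation variants displayed on the E. coli surface, counted by deep sequencing, each peptide's frequency after selection divided by its frequency in the unselected input library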;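 further: frequency after pTyr selection over input frequency; kinase dosed for 20-30% of maximal phosphorylation in three min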
0.787
